Every entry's value here was drawn from patent US20250320312A1.

Biological target: T1, Peptide 8: Biotin-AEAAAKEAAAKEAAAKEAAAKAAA-Tyr-acid (N-terminal biotin; C-terminal acid; no PC)
T1 construct: control peptide without PC
T1 peptide: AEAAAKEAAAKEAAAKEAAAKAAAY
Experiment: scFv ELISA
Property: OD450 (OD450)
One number for each entry, in OD450.

As a guide, the following entries are already answered.
PcOxP_DB02_C05 (scFv, V domains shown, scFv in periplasmic extract) VH: EVQLLESGGGLVQPGGSLRLSCAASGFTASDFYMEWVRQAPGKGLEWVAASRNKANDYTTEYADSVKGRFTISRDNSKNTLYLQMNSLRAEDTAVYYCARDYYGSSYWYFDVWGQGTLVTVSS VL: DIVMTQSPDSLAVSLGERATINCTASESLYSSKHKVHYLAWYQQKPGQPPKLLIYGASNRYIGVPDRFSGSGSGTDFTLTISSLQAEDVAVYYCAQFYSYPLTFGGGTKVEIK    0.04
PcOxP_DB04_G06 (scFv, V domains shown, scFv in periplasmic extract) VH: EVQLLESGGGLVQPGGSLRLSCAASGFTFSDFYMEWVRQAPGKGLEWVAASRWKANDYTTEYADSVKGRFTISRDNSKNTLYLQMNSLRAEDTAVYYCARDYYESSYWYFDVWGQGTLVTVSS VL: DIQMTQSPSSLSASVGDRVTITCTASQSLYSSKHKVHYLAWYQQKPGKAPKLLIYGASNRYIGVPSRFSGSGSGTDFTLTISSLQPEDFATYYCAQFYVYPLTFGGGTKVEIK    0.07
PcOxP_DB04_F06 (scFv, V domains shown, scFv in periplasmic extract) VH: EVQLLESGGGLVQPGGSLRLSCAASGDTFSDFYMEWVRQAPGKGLEWVAASRNKANDYTTEYADSVKGRFTISRDNSKNTLYLQMNSLRAEDTAVYYCARDYYGSSYWYFDVWGQGTLVTVSS VL: DIQMTQSPSSLSASVGDRVTITCTASESLSSSKHKVHYLAWYQQKPGKAPKLLIYGASNRYIGVPSRFSGSGSGTDFTLTISSLQPEDFATYYCAQFYSYPLTFGGGTKVEIK    0.06

Per the records, this binder ( PcOxP_DB01_D07 (scFv, V domains shown, scFv in periplasmic extract) VH: EVQLLESGGGLVQPGGSLRLSCAASGFTFSDYYMEWVRQAPGKGLEWVAASRNKANDYTTEYADSVKGRFTISRDNSKNTLYLQMNSLRAEDTAVYYCARDYYGDSYWYFDVWGQGTLVTVSS VL: DIVMTQSPDSLAVSLGERATINCKASQSVLSSKNNVNYLAWYQQKPGQPPKLLIYGASNRYSGVPDRFSGSGSGTDFTLTISSLQAEDVAVYYCAQFYSYPLTFGGGTKVEIK ) has OD450 equal to 0.04
